For each record, write down the corresponding Residual activity v/v0 (%) of the α-PsGal.
- experimental.system: α-D-galactosidase (α-PsGal) (Pseudoalteromonas sp. KMM 701, UniProt Q19AX0)
- assay.procedure: Inhibitory potency on recombinant α-PsGal (residual activity)
- Type: biochemical
- settings: compound concentration 1.48 mM; preincubated 30 min, 20 °C, pH 7.0

Input line: # return recorded Residual activity v/v0 (%) of the α-PsGal for input CN1CCc2c[nH]c3c2C1=CC(=O)C3=O [Compound 6, damirone B]
Output line: 87 ^2%

Input line: Given the compound Cn1cc2c3c1C(=O)C(N)=CC3=[N+](C)CC2 [Compound 7, makaluvamine H] , write its reported Residual activity v/v0 (%) of the α-PsGal.
Output line: 67 ^2%

Input line: Specify measured Residual activity v/v0 (%) of the α-PsGal for Cn1cc2c3c1C(=O)C(N/C=C/c1ccc(O)cc1)=CC3=[N+](C)CC2 [Compound 8, makaluvamine G] .
Output line: 28 ^2%

Input line: For the compound CN1CCc2cn(C)c3c2C1=CC(=O)C3=O [Compound 5, damirone A] , give its reported Residual activity v/v0 (%) of the α-PsGal.
Output line: 87 ^2%

Input line: Name the recorded Residual activity v/v0 (%) of the α-PsGal of the compound listed here: CNCCc1cn(C)c2c1C(=O)c1c(-c3ccc(O)cc3)c[nH]c1C2=O [Compound 9, zyzzyanone A]
Output line: 0 ^2%

* * *

- experimental.system: α-D-galactosidase (α-PsGal) (Pseudoalteromonas sp. KMM 701, UniProt Q19AX0)
- assay.procedure: Inhibitory potency on recombinant α-PsGal (residual activity)
- Type: biochemical
observed.property: inhibitory activity against α-PsGal (in words)

smiles.representation | experimental.system | result
COc1cc2c3c(cc[n+](C)c3c1[O-])NC(=O)C2=O | α-D-galactosidase (α-PsGal) (Pseudoalteromonas sp. KMM 701, UniProt Q19AX0) | no notable activity
CN1CCc2c[nH]c3c2C1=CC(=O)C3=O | α-D-galactosidase (α-PsGal) (Pseudoalteromonas sp. KMM 701, UniProt Q19AX0) | no notable activity
CNCCc1cn(C)c2c1C(=O)c1c(-c3ccc(O)cc3)c[nH]c1C2=O | α-D-galactosidase (α-PsGal) (Pseudoalteromonas sp. KMM 701, UniProt Q19AX0) | low inhibitory activity
Cn1cc2c3c1C(=O)C(N)=CC3=[N+](C)CC2 | α-D-galactosidase (α-PsGal) (Pseudoalteromonas sp. KMM 701, UniProt Q19AX0) | no notable activity
COc1cc2ccnc3c2c(c1OC)NC=C3 | α-D-galactosidase (α-PsGal) (Pseudoalteromonas sp. KMM 701, UniProt Q19AX0) | no notable activity
Cn1cc2c3c1C(=O)C(N/C=C/c1ccc(O)cc1)=CC3=[N+](C)CC2 | α-D-galactosidase (α-PsGal) (Pseudoalteromonas sp. KMM 701, UniProt Q19AX0) | low inhibitory activity

Okay, now this compound:
Input line: Find inhibitory activity against α-PsGal (in words) for CN1CCc2cn(C)c3c2C1=CC(=O)C3=O on α-D-galactosidase (α-PsGal) (Pseudoalteromonas sp. KMM 701, UniProt Q19AX0) and write it down.
Output line: no notable activity

* * *

- experimental.system: α-D-galactosidase (α-PsGal) (Pseudoalteromonas sp. KMM 701, UniProt Q19AX0)
- assay.procedure: Kinetic studies of α-PsGal inactivation
- settings: pH 7.0, 20 °C, Hill equation fit, read-out: Ki, equilibrium inhibition constant
observed.property: pKi
Value format note: pKi is -log10 of concentration (mol/L); just state the number.

Input line: Read off the recorded pKi for COc1cc2ccnc3c2c(c1O)N(C)C=C3
Output line: 5.57

Input line: State, in one line, measured pKi of Cn1cc2c3c1C(=O)C(N/C=C/c1ccc(O)cc1)=CC3=[N+](C)CC2
Output line: 3.39

Input line: Specify pKi for COc1cc2ccnc3c2c(c1O)NC=C3 and stop.
Output line: 3.52

Input line: Give the value of pKi reported for the following: CNCCc1cn(C)c2c1C(=O)c1c(-c3ccc(O)cc3)c[nH]c1C2=O
Output line: 3.98

* * *

- experimental.system: α-D-galactosidase (α-PsGal) (Pseudoalteromonas sp. KMM 701, UniProt Q19AX0)
- assay.procedure: Kinetic studies of α-PsGal inactivation
- Assay type: biochemical
- settings: pH 7.0, 20 °C
Field: n, Hill's coefficient of cooperativity. Provide a value for each of the compounds that follow.
I only need the number, thanks.

Input line: GET n, Hill's coefficient of cooperativity | system: α-D-galactosidase (α-PsGal) (Pseudoalteromonas sp. KMM 701, UniProt Q19AX0) | item: Cn1cc2c3c1C(=O)C(N/C=C/c1ccc(O)cc1)=CC3=[N+](C)CC2 [Compound 8, makaluvamine G]
Output line: 2.5

Input line: Under α-D-galactosidase (α-PsGal) (Pseudoalteromonas sp. KMM 701, UniProt Q19AX0): report n, Hill's coefficient of cooperativity of COc1cc2ccnc3c2c(c1O)N(C)C=C3 [Compound 2, isoaaptamine] .
Output line: 2.17

Input line: Write n, Hill's coefficient of cooperativity of CNCCc1cn(C)c2c1C(=O)c1c(-c3ccc(O)cc3)c[nH]c1C2=O [Compound 9, zyzzyanone A] ; system used: α-D-galactosidase (α-PsGal) (Pseudoalteromonas sp. KMM 701, UniProt Q19AX0)
Output line: 4.1

Input line: Give α-D-galactosidase (α-PsGal) (Pseudoalteromonas sp. KMM 701, UniProt Q19AX0) n, Hill's coefficient of cooperativity for the following compound: COc1cc2ccnc3c2c(c1O)NC=C3 [Compound 3, 9-demethylaaptamine]
Output line: 0.84

* * *

- experimental.system: α-D-galactosidase (α-PsGal) (Pseudoalteromonas sp. KMM 701)
- assay.procedure: Kinetic studies of α-PsGal inactivation
- Format: biochemical
- settings: pH 7.0, 20 °C, Hill equation fit, read-out: kinact, inactivation rate constant (converted)
Would you mind telling me the reported kinact of each entry?
Write the number in s⁻¹ without appending the unit.

Input line: Please report kinact for the following compound: CNCCc1cn(C)c2c1C(=O)c1c(-c3ccc(O)cc3)c[nH]c1C2=O
Output line: 0.000617

Input line: Check the records and state kinact for COc1cc2ccnc3c2c(c1O)NC=C3
Output line: 0.00153

Input line: Note down kinact recorded for COc1cc2ccnc3c2c(c1O)N(C)C=C3
Output line: 0.002

Input line: Note down kinact recorded for Cn1cc2c3c1C(=O)C(N/C=C/c1ccc(O)cc1)=CC3=[N+](C)CC2
Output line: 0.00132

* * *

- experimental.system: α-D-galactosidase (α-PsGal) (Pseudoalteromonas sp. KMM 701, UniProt Q19AX0)
- Sequence (Q19AX0 1-710): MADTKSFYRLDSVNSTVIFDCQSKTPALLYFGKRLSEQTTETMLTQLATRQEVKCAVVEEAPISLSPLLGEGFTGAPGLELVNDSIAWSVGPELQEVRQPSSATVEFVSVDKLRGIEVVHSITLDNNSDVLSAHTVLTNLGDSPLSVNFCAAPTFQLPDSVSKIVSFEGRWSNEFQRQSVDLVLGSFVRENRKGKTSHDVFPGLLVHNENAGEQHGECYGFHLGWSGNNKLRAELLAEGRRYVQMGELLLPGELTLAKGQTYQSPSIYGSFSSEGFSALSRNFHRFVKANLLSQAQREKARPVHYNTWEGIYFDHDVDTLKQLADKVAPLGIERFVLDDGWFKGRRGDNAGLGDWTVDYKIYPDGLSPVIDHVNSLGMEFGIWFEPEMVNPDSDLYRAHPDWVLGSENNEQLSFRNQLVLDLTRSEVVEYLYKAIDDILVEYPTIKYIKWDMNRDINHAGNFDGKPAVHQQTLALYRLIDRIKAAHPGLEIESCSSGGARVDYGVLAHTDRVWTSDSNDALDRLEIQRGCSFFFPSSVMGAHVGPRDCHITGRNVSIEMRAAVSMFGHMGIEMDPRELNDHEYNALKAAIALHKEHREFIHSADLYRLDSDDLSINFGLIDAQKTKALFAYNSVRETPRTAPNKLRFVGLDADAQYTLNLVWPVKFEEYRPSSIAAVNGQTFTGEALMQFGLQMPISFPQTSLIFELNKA
- assay.procedure: Inhibitory potency on recombinant α-PsGal (residual activity)
- Format: biochemical
- settings: compound concentration 1.67 mM; preincubated 30 min, 20 °C, pH 7.0
observed.property: Residual activity v/v0 (%) of the α-PsGal

Input line: Fill in reported Residual activity v/v0 (%) of the α-PsGal for this entry: COc1cc2ccnc3c2c(c1O)N(C)C=C3
Output line: 0 ^1%

Input line: Look up and report measured Residual activity v/v0 (%) of the α-PsGal for this entry: COc1cc2ccnc3c2c(c1OC)NC=C3
Output line: 79 ^1%

Input line: Look up and report measured Residual activity v/v0 (%) of the α-PsGal for this entry: COc1cc2c3c(cc[n+](C)c3c1[O-])NC(=O)C2=O
Output line: 100 ^1%

Input line: Assign Residual activity v/v0 (%) of the α-PsGal to the following record: COc1cc2ccnc3c2c(c1O)NC=C3
Output line: 0 ^1%
